These entries and their values trace back to PubChem BioAssay (NCI).

assay details: NCI Yeast Anticancer Drug Screen. Data for the bub3 strain (AID 167)
condition notes: S. cerevisiae bub3 mutant strain, at 50.0 µM
Experimental: Growth inhibition of yeast strains with defined genetic alterations is measured as a screen for potential anti-cancer activity. Selected strains with alterations in DNA damage repair or cell cycle control were exposed to compounds and growth inhibition was measured relative to vehicle treated controls. The strain used in this assay is bub3
This is part of a sample that, as a whole, favours compounds with a hit. Of some 79,000 tested, about 15% had one in any assay. Active and inactive are the calls of the source. Rule as the data show it: active = growth inhibition above about 70%; inactive = the rest.
Give one outcome, nothing more. List: yes (1) for active, no (0) for inactive

A selection of reference data follows.
molecule	class label
CC1(C)OC(=O)C(C(N)=O)C1c1ccc(Cl)cc1 (stereo unspecified)	no (0)
O=C(NCc1ccc([N+](=O)[O-])cc1)c1ccccc1	no (0)
CCC(=O)Nc1ncnc2ncn(C(=O)CC)c12	no (0)
CC(=O)OCCC(C)Nc1ccnc2cc(Cl)ccc12 (stereo unspecified)	no (0)
C=C1CCc2ccccc2C1=O	no (0)

IN: Outcome logged for O=C(Nc1ccccc1C(F)(F)F)Oc1ccc(Cl)cc1Cc1ccccc1 in this assay:
OUT: yes (1)

IN: GET /call?item= O=C(NC1COB(c2cccc([N+](=O)[O-])c2)OC1c1ccc([N+](=O)[O-])cc1)C(Cl)Cl (stereo unspecified) returns the recorded outcome of this test.
OUT: no (0)
